Values compiled from patent US6506772B1.

target: HA1 adenosine receptor (Homo sapiens, UniProt P30542); assay: Human adenosine A1 receptor affinity (Ki hA1); format: binding; details: affinity to human adenosine A1 receptor
Sequence (P30542 whole entry): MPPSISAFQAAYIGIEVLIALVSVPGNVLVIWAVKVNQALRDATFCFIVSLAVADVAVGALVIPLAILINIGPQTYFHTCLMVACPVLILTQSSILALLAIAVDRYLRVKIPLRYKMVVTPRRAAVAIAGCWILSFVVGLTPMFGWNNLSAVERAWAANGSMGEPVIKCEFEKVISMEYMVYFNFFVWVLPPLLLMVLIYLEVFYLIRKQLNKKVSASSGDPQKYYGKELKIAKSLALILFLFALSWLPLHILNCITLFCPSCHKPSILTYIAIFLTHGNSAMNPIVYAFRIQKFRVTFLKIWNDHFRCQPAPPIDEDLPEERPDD
resultType: Ki (nM)
One number for each entry, in nM.

Record excerpt, results attached:
[[record]]
molecule = "Nc1cc(C(=O)N2CC=CCC2)cc2nc(-c3nccs3)nn12 [Example 315]"
resulttype = "Ki"
measvalue = 1990

[[record]]
molecule = "CCN(C(=O)c1cc(N)n2nc(-c3ccc(C)s3)nc2c1)C1CCCCC1 [Example 24]"
resulttype = "Ki"
measvalue = 247

[[record]]
molecule = "CCCNC(=O)c1cc(N)n2nc(-c3ccc(OC)s3)nc2c1 [Example 71]"
resulttype = "Ki"
measvalue = 180


Below are 5 molecules. Give each one its Ki.
1. Cc1ccc(-c2nc3cc(C(=O)NC(C)c4ccccc4)cc(N)n3n2)o1 (stereo not shown) [Example 211]
2. CCN(C(=O)c1cc(N)n2nc(-c3ccc(Cl)o3)nc2c1)C1CCCCC1 [Example 243]
3. Cn1cccc1-c1nc2cc(C(=O)NCc3ccccc3)cc(N)n2n1 [Example 180]
4. COc1ccc(CNC(=O)c2cc(N)n3nc(-c4cc(Br)co4)nc3c2)cc1 [Example 176]
5. Cc1ccsc1-c1nc2cc(C(=O)N3CCCC3)cc(N)n2n1 [Example 188]

Reply text:
1. 298
2. 95.6
3. 307
4. 151
5. 711

Below are 8 molecules. Give each one its Ki.
1. COc1cc(CNC(=O)c2cc(N)n3nc(-c4nccs4)nc3c2)cc(OC)c1OC [Example 97]
2. CCN(CC)C(=O)c1cc(N)n2nc(-c3ccc(Cl)o3)nc2c1 [Example 233]
3. CCCCNC(=O)c1cc(N)n2nc(-c3ccco3)nc2c1 [Example 104]
4. CCCNC(=O)c1cc(N)n2nc(-c3cccnc3)nc2c1 [Example 82]
5. CCCN(CCC)C(=O)c1cc(N)n2nc(-c3ccc(Br)o3)nc2c1 [Example 338]
6. COc1ccc(-c2nc3cc(C(=O)NC4CCC4)cc(N)n3n2)s1 [Example 70]
7. CN(C(=O)c1cc(N)n2nc(-c3nccs3)nc2c1)C1CCCCC1 [Example 124]
8. CCCCCCNC(=O)c1cc(N)n2nc(-c3ccc(OC)s3)nc2c1 [Example 63]

Reply text:
[2560, 280, 223, 5850, 200, 148, 1510, 247]

Below are 3 molecules. Give each one its Ki.
1. CC1CCCN(C(=O)c2cc(N)n3nc(-c4ccc(Br)o4)nc3c2)C1 (stereo not shown) [Example 295]
2. CCCCCN(C)C(=O)c1cc(N)n2nc(-c3ccc(Br)o3)nc2c1 [Example 278]
3. Nc1cc(C(=O)N2CC=C(c3ccccc3)CC2)cc2nc(-c3ccc(Cl)o3)nn12 [Example 263]

Reply text:
[130, 94.3, 304]
